# Assay overview: Pharmacokinetic comparison of Form A and Form F in dogs (Example 15)
# Format: in vivo, Beagle dogs
# Condition parameters: both sexes, beagle, dog, plasma, 5 mg/kg, 5 mpk PO, read-out: T½ (converted)
Experimental endpoint: half-life

{"columns": ["Compound", "Observed measurement"],
 "data": [
  ["O=C1CCc2c(Oc3ccc4c(c3)[C@H]3[C@H](NC(=O)Nc5cc(F)c(F)cc5F)[C@H]3O4)ccnc2N1 [Form A]", "660 min"]
]}

====

# Assay overview: Solubility measurement (shaking 200 rpm at 25° C., HPLC)
# Type: physicochemical
# Condition parameters: 0.1N HCl, simulated gastric fluid
Experimental endpoint: solubility

{"columns": ["Compound", "Observed measurement"],
 "data": [
  ["O=C1CCc2c(Oc3ccc4c(c3)[C@H]3[C@H](NC(=O)Nc5cc(F)c(F)cc5F)[C@H]3O4)ccnc2N1 [Form A]", "20 µg/mL"]
]}

====

# Assay overview: Pharmacokinetic comparison of Form A and Form F in dogs (Example 15)
# Type: in vivo, Beagle dogs
# Condition parameters: both sexes, beagle, dog, plasma, 0.5 mg/kg, 0.5 mpk IV, read-out: T½ (converted)

{"columns": ["Compound", "half-life (h)"],
 "data": [
  ["O=C1CCc2c(Oc3ccc4c(c3)[C@H]3[C@H](NC(=O)Nc5cc(F)c(F)cc5F)[C@H]3O4)ccnc2N1 [Form A]", 11]
]}

====

# Assay overview: Solubility measurement (shaking 200 rpm at 25° C., HPLC)
# Format: physicochemical
# Condition parameters: 5% HTAB, aqueous with cosolvent or surfactant or cyclodextrin

{"columns": ["Compound", "solubility / µg/mL"],
 "data": [
  ["O=C1CCc2c(Oc3ccc4c(c3)[C@H]3[C@H](NC(=O)Nc5cc(F)c(F)cc5F)[C@H]3O4)ccnc2N1 [Form A]", 960]
]}

====

# Assay overview: Solubility measurement (shaking 200 rpm at 25° C., HPLC)
# Format: physicochemical
# Condition parameters: water
Experimental endpoint: solubility

{"columns": ["Compound", "Experimental endpoint", "Observed measurement"],
 "data": [
  ["O=C1CCc2c(Oc3ccc4c(c3)[C@H]3[C@H](NC(=O)Nc5cc(F)c(F)cc5F)[C@H]3O4)ccnc2N1 [Form A]", "solubility", "< 0.1 µg/mL"]
]}

====

# Assay overview: Pharmacokinetic comparison of Form A and Form F in dogs (Example 15)
# Type: in vivo, Beagle dogs
# Condition parameters: both sexes, beagle, dog, plasma, 5 mg/kg, 5 mpk PO

{"columns": ["Compound", "AUC(0-t)"],
 "data": [
  ["O=C1CCc2c(Oc3ccc4c(c3)[C@H]3[C@H](NC(=O)Nc5cc(F)c(F)cc5F)[C@H]3O4)ccnc2N1 [Form A]", "23400 ng·h/mL"]
]}

====

# Assay overview: Solubility measurement (shaking 200 rpm at 25° C., HPLC)
# Assay type: physicochemical
# Condition parameters: 5% Pluronic F68, aqueous with cosolvent or surfactant or cyclodextrin

{"columns": ["Compound", "solubility"],
 "data": [
  ["O=C1CCc2c(Oc3ccc4c(c3)[C@H]3[C@H](NC(=O)Nc5cc(F)c(F)cc5F)[C@H]3O4)ccnc2N1 [Form A]", "< 0.1 µg/mL"]
]}

====

# Assay overview: Pharmacokinetic comparison of Forms A-H in rats (Example 14)
# Type: in vivo
# Condition parameters: both sexes, rat, plasma, iv, 1 mg/kg, 1 mpk IV
Experimental endpoint: AUC(0-t) (ng·h/mL)

{"columns": ["Compound", "Unit text", "Observed measurement"],
 "data": [
  ["O=C1CCc2c(Oc3ccc4c(c3)[C@H]3[C@H](NC(=O)Nc5cc(F)c(F)cc5F)[C@H]3O4)ccnc2N1 [Form A]", "ng·h/mL", 5330]
]}

====

# Assay overview: Pharmacokinetic comparison of Form A and Form F in dogs (Example 15)
# Format: in vivo, Beagle dogs
# Condition parameters: both sexes, beagle, dog, plasma, 5 mg/kg, 5 mpk PO
Experimental endpoint: Cmax (µg/mL)

{"columns": ["Compound", "Observed measurement"],
 "data": [
  ["O=C1CCc2c(Oc3ccc4c(c3)[C@H]3[C@H](NC(=O)Nc5cc(F)c(F)cc5F)[C@H]3O4)ccnc2N1 [Form A]", 1.12]
]}

====

# Assay overview: Pharmacokinetic comparison of Forms A-H in rats (Example 14)
# Format: in vivo
# Condition parameters: both sexes, rat, plasma, 1 mg/kg, 1 mpk IV, read-out: Vdss

{"columns": ["Compound", "Vd, L/kg"],
 "data": [
  ["O=C1CCc2c(Oc3ccc4c(c3)[C@H]3[C@H](NC(=O)Nc5cc(F)c(F)cc5F)[C@H]3O4)ccnc2N1 [Form A]", 1.15]
]}

====

# Assay overview: Solubility measurement (shaking 200 rpm at 25° C., HPLC)
# Type: physicochemical
# Condition parameters: pH 4.5 buffer, pH 4.5, aqueous buffer
Experimental endpoint: solubility

{"columns": ["Molecule", "Experimental endpoint", "Observed measurement"],
 "data": [
  ["O=C1CCc2c(Oc3ccc4c(c3)[C@H]3[C@H](NC(=O)Nc5cc(F)c(F)cc5F)[C@H]3O4)ccnc2N1 [Form A]", "solubility", "< 0.1 µg/mL"]
]}

====

# Assay overview: Solubility measurement (shaking 200 rpm at 25° C., HPLC)
# Assay type: physicochemical
# Condition parameters: DMSO, organic solvent or mixture
Experimental endpoint: solubility at 2 h

{"columns": ["Molecule", "Observed measurement"],
 "data": [
  ["O=C1CCc2c(Oc3ccc4c(c3)[C@H]3[C@H](NC(=O)Nc5cc(F)c(F)cc5F)[C@H]3O4)ccnc2N1 [Form A]", "> 95.4 mg/mL"]
]}

====

# Assay overview: Solubility measurement (shaking 200 rpm at 25° C., HPLC)
# Type: physicochemical
# Condition parameters: n-heptane, organic solvent or mixture

{"columns": ["Compound", "solubility"],
 "data": [
  ["O=C1CCc2c(Oc3ccc4c(c3)[C@H]3[C@H](NC(=O)Nc5cc(F)c(F)cc5F)[C@H]3O4)ccnc2N1 [Form A]", "< 0.1 µg/mL"]
]}

====

# Assay overview: Pharmacokinetic comparison of Forms A-H in rats (Example 14)
# Assay type: in vivo
# Condition parameters: both sexes, rat, plasma, 1 mg/kg, 1 mpk IV

{"columns": ["Molecule", "Unit text", "clearance"],
 "data": [
  ["O=C1CCc2c(Oc3ccc4c(c3)[C@H]3[C@H](NC(=O)Nc5cc(F)c(F)cc5F)[C@H]3O4)ccnc2N1 [Form A]", "mL/min/kg", 3.15]
]}

====

# Assay overview: Pharmacokinetic comparison of Form A and Form F in dogs (Example 15)
# Format: in vivo, Beagle dogs
# Condition parameters: both sexes, beagle, dog, plasma, 0.5 mg/kg, 0.5 mpk IV
Experimental endpoint: AUC(0-t) (ng·h/mL)

{"columns": ["Compound", "Unit text", "Observed measurement"],
 "data": [
  ["O=C1CCc2c(Oc3ccc4c(c3)[C@H]3[C@H](NC(=O)Nc5cc(F)c(F)cc5F)[C@H]3O4)ccnc2N1 [Form A]", "ng·h/mL", 6870]
]}

====

# Assay overview: Solubility measurement (shaking 200 rpm at 25° C., HPLC)
# Type: physicochemical
# Condition parameters: pH 1.2 buffer solution, pH 1.2, simulated gastric fluid

{"columns": ["Molecule", "solubility / µg/mL"],
 "data": [
  ["O=C1CCc2c(Oc3ccc4c(c3)[C@H]3[C@H](NC(=O)Nc5cc(F)c(F)cc5F)[C@H]3O4)ccnc2N1 [Form A]", 15]
]}
